Experimental System: T1, PUF4 RNA-binding domain (Saccharomyces cerevisiae, UniProt P25339 537-888)
T1 sequence: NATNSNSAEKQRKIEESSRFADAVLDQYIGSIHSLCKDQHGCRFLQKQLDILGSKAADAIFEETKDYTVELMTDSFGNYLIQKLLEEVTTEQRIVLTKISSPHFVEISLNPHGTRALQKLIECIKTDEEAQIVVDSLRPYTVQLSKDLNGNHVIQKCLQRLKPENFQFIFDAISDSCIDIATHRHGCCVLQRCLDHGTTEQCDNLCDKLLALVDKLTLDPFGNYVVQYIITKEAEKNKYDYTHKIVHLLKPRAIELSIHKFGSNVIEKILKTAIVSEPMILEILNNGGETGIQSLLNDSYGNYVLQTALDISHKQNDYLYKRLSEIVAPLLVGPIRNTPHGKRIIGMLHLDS
Assay Text: Mg; RNA-MaP; 20 mM Na-HEPES pH 7.4, 30 mM KOAc, 0.75 mM MgCl2, 0.1% Tween-20, 5% glycerol, 0.1 mg/mL BSA, 2 mM DTT; 25 C; 0.0125-409.6 nM protein
Condition Context: tags: N-His6-TEV cleaved; C-SNAP kept, Cy3B-labelled; label: tethered on chip by stalled RNA polymerase
Reported Property: pKd
One number for each entry, as −log10 of the molar value.

Known results for binders:
Ic_S4_P4E.1_K4.1_C4.1_H4.1_A4.1_[T5C]_[A6G]_[T7A]_F4.1_[T8C]_[A9C]_T4.1 (ssRNA) RNA: UUUGACAACUGAUCGUUCUUUCUUGUACGACCUUCUUUCUCGAUCAGUUGUCUUU :: 6.00
Id_ii_S2_P3E.2_K3.1_C3.2_H3.1_A3.1_F3.1_T3.2_[T9A]_[A10T] (ssRNA) RNA: UUUGAUUAAUAUGAUAUCGUUCUUUCUCUUGUAUAUAAUUUCUUUCUCGAUAUCAUAUUAAUCUUU :: 8.72
UCUCUUCUUUCUCUGUAUAUAUAUCUCUU (ssRNA) [Ie_S1_P3E.2_K3.1_C3.2_H3.1_[+1TCTCT]_A3.1_F3.1_T3.2] :: 8.31
UCUCUUCUUAUAUAUUAUAUCUCUU (ssRNA) [Id_ii_S1_P4E.3_K4.2_C4.2_H4.2_A4.1_F4.1_T4.2_[G10T]_[T11A]] :: 7.56
UCUCUUCUUAUAUAUAUAUCUCUU (ssRNA) [Id_ii_S1_P3E.3_K3.2_C3.2_H3.2_A3.1_F3.1_T3.2] :: 6.40
UCUCUUUGUACUCUUUCUCUU (ssRNA) [Ic_S1_P4E.1_K4.1_C4.1_H4.1_A4.1_[T5C]_[A6T]_[T7C]_F4.1_[A9T]_T4.1] :: 7.47

For every item in the list below, what is its measured pKd?
1. Id_ii_S2_P3E.3_K3.2_C3.2_[C-2T]_[T-1A]_H3.2_A3.1_F3.1_T3.2_[T9A]_[A10T] (ssRNA) RNA: UUUGAUUAAUAUGAUAUCGUUCUUUCUUAUAUAUAUAAUUUCUUUCUCGAUAUCAUAUUAAUCUUU
2. UCUCUUUGUGUAUAUAUCUCUCUU (ssRNA) [Id_ii_S1_P3E.2_K3.1_C3.2_[C-2T]_[T-1G]_H3.1_A3.1_F3.1_T3.2_[A10C]]
3. UCUCUUUGUAGCAUUUCUCUU (ssRNA) [Ic_S1_P4E.1_K4.1_C4.1_H4.1_A4.1_[T5G]_[A6C]_[T7A]_F4.1_[A9T]_T4.1]
4. UCUCUUUGUAUUACUUUAUCUCUU (ssRNA) [Ie_S1_P5E.1_K5.1_C5.1_H5.1_A5.1_[+7CT]_F5.1_T5.1]
5. Id_ii_S4_P3E.3_K3.2_C3.2_[C-2G]_H3.2_A3.1_F3.1_T3.2_[T9C]_[A10T] (ssRNA) RNA: UUUGACAACUGAUCGUUCUUUCUGUUAUAUAUACUUUCUUUCUCGAUCAGUUGUCUUU

Result:
1: 6.61; 2: 8.15; 3: 7.49; 4: 7.43; 5: 6.84
